- SYSTEM UNDER TEST: Interstitial collagenase (Homo sapiens, UniProt P03956)
- Sequence (P03956 whole entry): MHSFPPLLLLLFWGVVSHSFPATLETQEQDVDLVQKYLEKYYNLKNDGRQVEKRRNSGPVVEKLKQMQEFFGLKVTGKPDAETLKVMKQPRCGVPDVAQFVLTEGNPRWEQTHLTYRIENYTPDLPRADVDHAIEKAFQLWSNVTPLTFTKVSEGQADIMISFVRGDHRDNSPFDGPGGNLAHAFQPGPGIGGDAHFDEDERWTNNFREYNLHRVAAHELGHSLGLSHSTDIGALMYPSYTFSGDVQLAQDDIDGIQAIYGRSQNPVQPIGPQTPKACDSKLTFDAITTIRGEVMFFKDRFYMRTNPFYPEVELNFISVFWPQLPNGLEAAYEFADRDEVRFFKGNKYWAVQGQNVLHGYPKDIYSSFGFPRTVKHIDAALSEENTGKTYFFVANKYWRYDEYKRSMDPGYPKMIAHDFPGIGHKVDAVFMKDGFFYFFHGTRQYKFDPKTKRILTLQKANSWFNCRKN
- CONDITIONS: read-out: log(1/IC50) (converted)
Threshold 2 µM: IC50 strictly smaller gives T, otherwise F.

Example cases with answers are listed next.
* C[C@@]1(O)CCCN(S(=O)(=O)c2ccc(OCc3ccccc3C#N)cc2)C1C(=O)NO (some centres undefined) | F
* Cc1ncccc1COc1ccc(S(=O)(=O)N2CCC[C@@](C)(O)C2C(=O)NO)cc1 (some centres undefined) | T

query: Criterion: IC50 strictly below 2 µM. Is it met by COc1ccccc1COc1ccc(S(=O)(=O)N2CCC[C@@](C)(O)C2C(=O)NO)cc1 (some centres undefined) ?
result: F

query: Criterion: IC50 strictly below 2 µM. Is it met by CNC(=O)[C@@H](NC(=O)C(CCC(C)C)CP(=O)(O)Cc1ccc(Cc2ccccc2)cc1)C(C)(C)C (some centres undefined) ?
result: F

query: Criterion: IC50 strictly below 2 µM. Is it met by C[C@@]1(O)CCCN(S(=O)(=O)c2ccc(OC[n+]3ccncc3)cc2)C1C(=O)NO (some centres undefined) ?
result: T

query: Criterion: IC50 strictly below 2 µM. Is it met by CC(N)P(=O)(O)CC(COCc1ccccc1)C(=O)NC(Cc1c[nH]c2ccccc12)C(N)=O (centres undefined) ?
result: T

query: Criterion: IC50 strictly below 2 µM. Is it met by CC(N)P(=O)(O)CC(CCc1ccccc1)C(=O)NC(Cc1c[nH]c2ccccc12)C(N)=O (centres undefined) ?
result: T

query: Criterion: IC50 strictly below 2 µM. Is it met by CNC(=O)[C@@H](NC(=O)C(CCC1CCCCC1)CP(=O)(O)Cc1ccc(Cc2ccccc2)cc1)C(C)(C)C (some centres undefined) ?
result: F

query: Criterion: IC50 strictly below 2 µM. Is it met by CNC(=O)[C@@H](Cc1ccc(OC)cc1)NC(=O)C(CC(C)C)CP(=O)(O)Cc1ccccc1-c1ccccc1 (some centres undefined) ?
result: F

FYI, the data here is from ChEMBL document CHEMBL1140610.
